B1: library; a variant is named by its letters at N, in order (parent)
chain: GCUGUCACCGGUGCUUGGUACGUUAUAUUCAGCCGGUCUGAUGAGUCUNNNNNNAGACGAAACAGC

Variants of: B1
Test: normalized RNA/DNA level without ligand (relative to sTRSVctl = 100) (log10 (% of sTRSVctl)); HEK293T overexpressing SLC46A1; higher = less ribozyme self-cleavage, higher mRNA level
Details: without (6R,S)-folinic acid; ligand present: no
Record form. Attribute: normalized RNA/DNA level without ligand (log10). Fill in for each entry.
# print the numeric value only

Qu. Given "AAUAGU" , respond with its normalized RNA/DNA level without ligand (log10).
Ans. 1.93

Qu. Given "UUGAUC" , respond with its normalized RNA/DNA level without ligand (log10).
Ans. 2.05

Qu. Given "GGACCG" , respond with its normalized RNA/DNA level without ligand (log10).
Ans. 2.07

Qu. Given "UUUUUC" , respond with its normalized RNA/DNA level without ligand (log10).
Ans. 2.05

Qu. Given "UGCUCG" , respond with its normalized RNA/DNA level without ligand (log10).
Ans. 1.84

Qu. Given "CGAAGG" , respond with its normalized RNA/DNA level without ligand (log10).
Ans. 1.86

Qu. Given "UUCUGG" , respond with its normalized RNA/DNA level without ligand (log10).
Ans. 1.89

Qu. Given "GCUAGU" , respond with its normalized RNA/DNA level without ligand (log10).
Ans. 1.98

Qu. Given "CCCCCG" , respond with its normalized RNA/DNA level without ligand (log10).
Ans. 2.05

Qu. Given "AUCCUG" , respond with its normalized RNA/DNA level without ligand (log10).
Ans. 1.99

Qu. Given "GGCAUA" , respond with its normalized RNA/DNA level without ligand (log10).
Ans. 2.03

Qu. Given "UUAUUA" , respond with its normalized RNA/DNA level without ligand (log10).
Ans. 1.98

Qu. Given "GUAUAA" , respond with its normalized RNA/DNA level without ligand (log10).
Ans. 1.96

Qu. Given "GUCUCA" , respond with its normalized RNA/DNA level without ligand (log10).
Ans. 2.02

Qu. Given "UGUACC" , respond with its normalized RNA/DNA level without ligand (log10).
Ans. 2.02

Qu. Given "UGAACC" , respond with its normalized RNA/DNA level without ligand (log10).
Ans. 2.01

Qu. Given "AGCCGA" , respond with its normalized RNA/DNA level without ligand (log10).
Ans. 2

Qu. Given "GUUAAA" , respond with its normalized RNA/DNA level without ligand (log10).
Ans. 1.99

Qu. Given "UUGAAU" , respond with its normalized RNA/DNA level without ligand (log10).
Ans. 1.95

Qu. Given "UAGCUG" , respond with its normalized RNA/DNA level without ligand (log10).
Ans. 1.9

Qu. Given "AAUCAA" , respond with its normalized RNA/DNA level without ligand (log10).
Ans. 1.97

Qu. Given "UGACUG" , respond with its normalized RNA/DNA level without ligand (log10).
Ans. 1.86

Qu. Given "AUCUGC" , respond with its normalized RNA/DNA level without ligand (log10).
Ans. 2.06

Qu. Given "GUUUUC" , respond with its normalized RNA/DNA level without ligand (log10).
Ans. 2.03

Qu. Given "GGGCAA" , respond with its normalized RNA/DNA level without ligand (log10).
Ans. 2.05

Qu. Given "GAGCUA" , respond with its normalized RNA/DNA level without ligand (log10).
Ans. 2.02

Qu. Given "GGCCAG" , respond with its normalized RNA/DNA level without ligand (log10).
Ans. 2.04

Qu. Given "UGCCGC" , respond with its normalized RNA/DNA level without ligand (log10).
Ans. 2.03

Qu. Given "AACAAA" , respond with its normalized RNA/DNA level without ligand (log10).
Ans. 1.97

Qu. Given "UCAAUA" , respond with its normalized RNA/DNA level without ligand (log10).
Ans. 1.95

Qu. Given "AAGUGG" , respond with its normalized RNA/DNA level without ligand (log10).
Ans. 1.87

Qu. Given "UAAUGA" , respond with its normalized RNA/DNA level without ligand (log10).
Ans. 1.87

Qu. Given "AUUCGC" , respond with its normalized RNA/DNA level without ligand (log10).
Ans. 2.04

Qu. Given "CGGAGA" , respond with its normalized RNA/DNA level without ligand (log10).
Ans. 2

Qu. Given "UUAUCC" , respond with its normalized RNA/DNA level without ligand (log10).
Ans. 2.04

Qu. Given "UGUCCU" , respond with its normalized RNA/DNA level without ligand (log10).
Ans. 2.03

Qu. Given "GCGUCU" , respond with its normalized RNA/DNA level without ligand (log10).
Ans. 2.06

Qu. Given "GUGUAG" , respond with its normalized RNA/DNA level without ligand (log10).
Ans. 1.9

Qu. Given "GCAUAA" , respond with its normalized RNA/DNA level without ligand (log10).
Ans. 1.97

Qu. Given "UGCCUA" , respond with its normalized RNA/DNA level without ligand (log10).
Ans. 2.03

Qu. Given "CCACCG" , respond with its normalized RNA/DNA level without ligand (log10).
Ans. 2.01

Qu. Given "GGGUCC" , respond with its normalized RNA/DNA level without ligand (log10).
Ans. 2.05

Qu. Given "GGCAAU" , respond with its normalized RNA/DNA level without ligand (log10).
Ans. 2.06

Qu. Given "CUUCAG" , respond with its normalized RNA/DNA level without ligand (log10).
Ans. 2.03

Qu. Given "GGAUAG" , respond with its normalized RNA/DNA level without ligand (log10).
Ans. 1.95

Qu. Given "CUCGGC" , respond with its normalized RNA/DNA level without ligand (log10).
Ans. 2.05

Qu. Given "UUGAGA" , respond with its normalized RNA/DNA level without ligand (log10).
Ans. 1.84

Qu. Given "GCUUCA" , respond with its normalized RNA/DNA level without ligand (log10).
Ans. 2.04

Qu. Given "ACAAUA" , respond with its normalized RNA/DNA level without ligand (log10).
Ans. 1.98

Qu. Given "GCCGGG" , respond with its normalized RNA/DNA level without ligand (log10).
Ans. 2.09

Qu. Given "GACCCA" , respond with its normalized RNA/DNA level without ligand (log10).
Ans. 2.02

Qu. Given "CUUCUG" , respond with its normalized RNA/DNA level without ligand (log10).
Ans. 2.06

Qu. Given "AAGGGU" , respond with its normalized RNA/DNA level without ligand (log10).
Ans. 1.95

Qu. Given "UGUCUG" , respond with its normalized RNA/DNA level without ligand (log10).
Ans. 1.73

Qu. Given "UCUAUA" , respond with its normalized RNA/DNA level without ligand (log10).
Ans. 2

Qu. Given "UUGUAU" , respond with its normalized RNA/DNA level without ligand (log10).
Ans. 1.99

Qu. Given "CGUGGU" , respond with its normalized RNA/DNA level without ligand (log10).
Ans. 2

Qu. Given "AGUGAC" , respond with its normalized RNA/DNA level without ligand (log10).
Ans. 2.01

Qu. Given "GGGGGA" , respond with its normalized RNA/DNA level without ligand (log10).
Ans. 2.06

Qu. Given "ACAGCA" , respond with its normalized RNA/DNA level without ligand (log10).
Ans. 2.02

Qu. Given "GACGGG" , respond with its normalized RNA/DNA level without ligand (log10).
Ans. 1.99

Qu. Given "GCUUCU" , respond with its normalized RNA/DNA level without ligand (log10).
Ans. 2

Qu. Given "CUGAAU" , respond with its normalized RNA/DNA level without ligand (log10).
Ans. 1.96

Qu. Given "GCUAGC" , respond with its normalized RNA/DNA level without ligand (log10).
Ans. 2.04

Qu. Given "AUACGA" , respond with its normalized RNA/DNA level without ligand (log10).
Ans. 1.99

Qu. Given "GCGCGU" , respond with its normalized RNA/DNA level without ligand (log10).
Ans. 2.06

Qu. Given "GGCAUC" , respond with its normalized RNA/DNA level without ligand (log10).
Ans. 2.05

Qu. Given "CCUAGC" , respond with its normalized RNA/DNA level without ligand (log10).
Ans. 2.08

Qu. Given "UACCCC" , respond with its normalized RNA/DNA level without ligand (log10).
Ans. 2.03

Qu. Given "UGAUUU" , respond with its normalized RNA/DNA level without ligand (log10).
Ans. 1.99

Qu. Given "CGUUAA" , respond with its normalized RNA/DNA level without ligand (log10).
Ans. 1.97

Qu. Given "CCGGUA" , respond with its normalized RNA/DNA level without ligand (log10).
Ans. 2.01

Qu. Given "AACCAG" , respond with its normalized RNA/DNA level without ligand (log10).
Ans. 1.97

Qu. Given "UCAUUC" , respond with its normalized RNA/DNA level without ligand (log10).
Ans. 2.07

Qu. Given "UGCGUU" , respond with its normalized RNA/DNA level without ligand (log10).
Ans. 1.97

Qu. Given "UAUAUC" , respond with its normalized RNA/DNA level without ligand (log10).
Ans. 2.03

Qu. Given "CACGGC" , respond with its normalized RNA/DNA level without ligand (log10).
Ans. 2.05

Qu. Given "CGAGGG" , respond with its normalized RNA/DNA level without ligand (log10).
Ans. 1.84

Qu. Given "UCGUGC" , respond with its normalized RNA/DNA level without ligand (log10).
Ans. 2.07

Qu. Given "UGAAGU" , respond with its normalized RNA/DNA level without ligand (log10).
Ans. 1.91

Qu. Given "CUCUGU" , respond with its normalized RNA/DNA level without ligand (log10).
Ans. 2.03

Qu. Given "AUCCGU" , respond with its normalized RNA/DNA level without ligand (log10).
Ans. 2.02

Qu. Given "UCCGAA" , respond with its normalized RNA/DNA level without ligand (log10).
Ans. 1.94

Qu. Given "CCCAUG" , respond with its normalized RNA/DNA level without ligand (log10).
Ans. 2.04

Qu. Given "CUAAUU" , respond with its normalized RNA/DNA level without ligand (log10).
Ans. 2.01

Qu. Given "UUCCUG" , respond with its normalized RNA/DNA level without ligand (log10).
Ans. 1.96

Qu. Given "GCUGUU" , respond with its normalized RNA/DNA level without ligand (log10).
Ans. 2.04
